# system: T1, recombinant human Fc-tagged PSA (Homo sapiens, UniProt P07288)
# T1 construct: prostate-specific antigen (PSA), human; also called prostate-specific antigen; recombinant Fc-tagged PSA
# T1 sequence (P07288 18-261): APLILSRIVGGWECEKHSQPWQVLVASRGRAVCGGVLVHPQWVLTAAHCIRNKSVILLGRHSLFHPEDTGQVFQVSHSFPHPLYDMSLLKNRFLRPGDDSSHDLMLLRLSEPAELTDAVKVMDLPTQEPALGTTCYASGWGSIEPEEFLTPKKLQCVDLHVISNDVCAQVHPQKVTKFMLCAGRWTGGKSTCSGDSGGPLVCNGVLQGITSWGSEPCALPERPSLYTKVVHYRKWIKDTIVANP
# method-notes: ELISA; phage enzyme immunoassay: recombinant human Fc-tagged PSA coated on the microtiter plate (5 ug/ml in PBS, overnight at 4 C), blocked with 3% BSA in PBS; scFv-displaying phages in culture supernatant; HRP-conjugated anti-M13 antibody, ABTS, optical density at 405 nm
# conditions-used: one partner purified

{"binder": "artificial cysteine-mutant scFv H16, scFv-pIII fusion protein displayed on phage (scFv, V domains shown, VL as in m2; Order VL-linker-VH worked out as for m2) VH: AVTLDESGGGLQTPGCALSLVCKASGFTFSSYDMGWVRQAPGKGLEWVAGIDDDGSYPNYGPAVKGRATISRDNGQSTVRLQLNNLRAEDTGTYFCAKGIESDSDGYMTAEEIDAWGHGTEVIVSS VL: ALTQPSSVSANLGGTVKITCSGGYSYYGWYQQKSPGSAPVTVIYESTKRPSNIPSRFSGSTSGSTGTLTITGVQADDAAVYYCGSWDSSSVGIFGAGTTLTVL", "binding result": "binds"}
{"binder": "artificial cysteine-mutant scFv H13 (QCP), scFv-pIII fusion protein displayed on phage (scFv, V domains shown, VL as in m2; Order VL-linker-VH worked out as for m2) VH: AVTLDESGGGLQCPGGALSLVCKASGFTFSSYDMGWVRQAPGKGLEWVAGIDDDGSYPNYGPAVKGRATISRDNGQSTVRLQLNNLRAEDTGTYFCAKGIESDSDGYMTAEEIDAWGHGTEVIVSS VL: ALTQPSSVSANLGGTVKITCSGGYSYYGWYQQKSPGSAPVTVIYESTKRPSNIPSRFSGSTSGSTGTLTITGVQADDAAVYYCGSWDSSSVGIFGAGTTLTVL", "binding result": "binds"}
{"binder": "artificial cysteine-mutant scFv L6, scFv-pIII fusion protein displayed on phage (scFv, V domains shown, VH as in m2; Order VL-linker-VH worked out as for m2) VH: AVTLDESGGGLQTPGGALSLVCKASGFTFSSYDMGWVRQAPGKGLEWVAGIDDDGSYPNYGPAVKGRATISRDNGQSTVRLQLNNLRAEDTGTYFCAKGIESDSDGYMTAEEIDAWGHGTEVIVSS VL: ALTCPSSVSANLGGTVKITCSGGYSYYGWYQQKSPGSAPVTVIYESTKRPSNIPSRFSGSTSGSTGTLTITGVQADDAAVYYCGSWDSSSVGIFGAGTTLTVL", "binding result": "binds"}

Provenance of the data: paper PMC4713166
